Field IC50: reported value for Protein deacetylase HDAC6 (Homo sapiens); entries drawn from several documents.
Just a reminder that ties go to f: only IC50 strictly below 10 nM counts as t.

{"MOLECULE": "Nc1cc(F)ccc1NC(=O)c1ccc(CCNc2nc(N)n3nc(-c4ccco4)nc3n2)cc1", "GROUP_LABEL": "f"}
{"MOLECULE": "O=C1NC[C@H](c2ccccc2)[C@@H]1C(=O)N[C@@H](CCCCCS)C(=O)Nc1ccccc1", "GROUP_LABEL": "t"}
{"MOLECULE": "COc1ccc(-c2ccc(/C=C/C(=O)NO)cc2)cc1", "GROUP_LABEL": "f"}
{"MOLECULE": "CC(=O)Nc1ccc(-c2ccnc(Nc3ccc(OCCCCCC(=O)NO)cc3)n2)cc1", "GROUP_LABEL": "t"}
{"MOLECULE": "O=C(NO)c1ccc(CNC(=O)c2ccccc2)cc1", "GROUP_LABEL": "f"}
{"MOLECULE": "CNC(=O)c1ccc(CN(C)C23CC4C[C@@](C)(C2)C[C@](C)(C4)C3)nc1", "GROUP_LABEL": "f"}
{"MOLECULE": "O=C(CCC1C(=O)N(c2ccc(Cl)cc2)C(=O)N1Cc1ccc(Br)cc1)NCc1ccc(C(=O)NO)cc1 (centres undefined)", "GROUP_LABEL": "f"}
{"MOLECULE": "Cc1cccc(NC(=O)[C@H](CCCCCS)NC(=O)[C@H]2CCC(=O)N2C)c1", "GROUP_LABEL": "t"}
{"MOLECULE": "CC[C@H]1OC(=O)[C@H](C)C(=O)[C@H](C)[C@@H](O[C@@H]2O[C@H](C)C[C@H](N(C)Cc3ccc(-c4cn(CCCCCCCCC(=O)NO)nn4)cc3)[C@H]2O)[C@](C)(OC)C[C@@H](C)C2=NCCN3C(=O)O[C@@]1(C)[C@H]3[C@H]2C", "GROUP_LABEL": "f"}
{"MOLECULE": "Cn1c(CN2CCC3(CC2)OCCO3)nc2cc(C(=O)NO)ccc21", "GROUP_LABEL": "f"}
{"MOLECULE": "CN(CCc1ccccc1)S(=O)(=O)c1cccc(/C=C/C(=O)NO)c1", "GROUP_LABEL": "t"}
{"MOLECULE": "O=C(NO)c1ccc(CN2C(=O)CN(Cc3ccccc3)C2=O)cc1", "GROUP_LABEL": "f"}
{"MOLECULE": "COc1ccc2c(c1)c1c(n2Cc2ccc(C(=O)NO)cn2)CCN(C)C1", "GROUP_LABEL": "f"}
{"MOLECULE": "O=C1NCCC[C@@H]1C(=O)N[C@@H](CCCCCS)C(=O)Nc1ccccc1", "GROUP_LABEL": "t"}
{"MOLECULE": "O=C(NO)c1ccc(NC2CCN(c3ccc(Cl)c(Cl)c3)C2=O)cc1 (centres undefined)", "GROUP_LABEL": "f"}
{"MOLECULE": "O=C(NO)C1CCCCC1", "GROUP_LABEL": "f"}
{"MOLECULE": "C[C@H](NC(=O)[C@H](CC(=O)NC(C)(C)C)NC(=O)c1ccc(C(=O)NO)cc1)C(=O)NCc1ccccc1", "GROUP_LABEL": "f"}
{"MOLECULE": "Nc1ncc(-c2cn(CCCCCCCC(=O)NO)c(=O)c(N3CCOCC3)n2)cn1", "GROUP_LABEL": "f"}
{"MOLECULE": "O=C(Cc1cnc(N2CCC(CN3CC(=O)N4[C@H](c5ccc6c(c5)OCO6)c5[nH]c6ccccc6c5C[C@@H]4C3=O)CC2)nc1)NO", "GROUP_LABEL": "f"}
